// provenance: patent US20240336556A1

Assay: Approximate solubility determination (small aliquots of solvent added to ~10 mg of solid, ambient conditions)
Assay type: physicochemical
Details: organic solvent or mixture, thermodynamic from solid, Ethanol, approximation
Description: Approximate solubilities were determined for the R-ketamine free base. […] These values are only approximations.
measurement-type: solubility

Exam item: Tell us which solubility value is on record for CN[C@@]1(c2ccccc2Cl)CCCCC1=O [R-ketamine free base]
Marked response: 62 to 83 mg/mL

###

Assay: Approximate solubility in 20% (w/w) aqueous (2-Hydroxypropyl)-Beta-cyclodextrin solution and in 20% (w/w) cyclodextrin in buffer pH 7, with pH of the solutions
Conditions: 20% (w/w) (2-hydroxypropyl)-beta-cyclodextrin in buffer pH 7, pH 7, aqueous with cosolvent or surfactant or cyclodextrin, thermodynamic from solid
measurement-type: solubility

Exam item: Please look at this compound and report its solubility: CN[C@@]1(c2ccccc2Cl)CCCCC1=O [R-ketamine free base]
Marked response: 2000 to 2500 µg/mL

###

Assay: Approximate solubility determination (small aliquots of solvent added to ~10 mg of solid, ambient conditions)
Format: physicochemical
Conditions: organic solvent or mixture, thermodynamic from solid, 1-propanol, approximation
measurement-type: solubility

Exam item: Please report solubility for the following compound: CN[C@@]1(c2ccccc2Cl)CCCCC1=O [R-ketamine free base]
Marked response: 60 to 79 mg/mL

###

Assay: Approximate solubility determination (small aliquots of solvent added to ~10 mg of solid, ambient conditions)
Type: physicochemical
Conditions: organic solvent or mixture, thermodynamic from solid, Acetonitrile, approximation
measurement-type: solubility

Exam item: Report solubility, nothing else, for this compound: CN[C@@]1(c2ccccc2Cl)CCCCC1=O [R-ketamine free base]
Marked response: 89 to 133 mg/mL

###

Assay: Approximate solubility in 20% (w/w) aqueous (2-Hydroxypropyl)-Beta-cyclodextrin solution and in 20% (w/w) cyclodextrin in buffer pH 7, with pH of the solutions
Details: aqueous with cosolvent or surfactant or cyclodextrin, thermodynamic from solid
measurement-type: solubility

Exam item: Note down solubility recorded for CN[C@@]1(c2ccccc2Cl)CCCCC1=O [R-ketamine free base]
Marked response: 1500 to 1700 µg/mL

###

Assay: Approximate solubility determination (small aliquots of solvent added to ~10 mg of solid, ambient conditions)
Assay type: physicochemical
Details: organic solvent or mixture, thermodynamic from solid, THF, approximation
measurement-type: solubility

Exam item: Supply solubility value. Item: CN[C@@]1(c2ccccc2Cl)CCCCC1=O [R-ketamine free base]
Marked response: > 288 mg/mL

###

Test: Approximate solubility determination (small aliquots of solvent added to ~10 mg of solid, ambient conditions)
Assay type: physicochemical
Details: thermodynamic from solid, Water, approximation
measurement-type: solubility

Exam item: Provide only the value of recorded solubility for CN[C@@]1(c2ccccc2Cl)CCCCC1=O [R-ketamine free base]
Marked response: < 1000 µg/mL

###

Experiment: Dynamic vapor sorption (DVS) and classification of hygroscopicity
Format: physicochemical
Settings: DVS, under the test conditions
Method: DVS measurements were performed with an SPS11-100n “Sorptions Prüfsystem” from ProUmid (formerly “Projekt Messtechnik”), August-Nagel-Str. 23, 89079 Ulm (Germany). About 5-20 mg of sample were put into an aluminum sample pan. Humidity change rates of […] were used. The applied measurement program is described as follows: […]
measurement-type: reversibility of water sorption

Exam item: Identify reversibility of water sorption associated with the molecule CN[C@@]1(c2ccccc2Cl)CCCCC1=O.O=C(O)C(O)C(O)C(=O)O [R-ketamine D-tartrate salt Form C]
Marked response: irreversible

Exam item: Quick one: give measured reversibility of water sorption for CN[C@@]1(c2ccccc2Cl)CCCCC1=O.O=C(O)C(O)C(O)C(=O)O [R-ketamine D-tartrate salt Form B]
Marked response: irreversible

Exam item: Could you please provide reported reversibility of water sorption for CN[C@@]1(c2ccccc2Cl)CCCCC1=O.O=C(O)C(O)C(O)C(=O)O [R-ketamine D-tartrate salt Form A] ? Thanks!
Marked response: irreversible

###

Assay: Approximate solubility determination (small aliquots of solvent added to ~10 mg of solid, ambient conditions)
Format: physicochemical
Conditions: aqueous with cosolvent or surfactant or cyclodextrin, thermodynamic from solid, 20% (2-hydroxypropyl)-beta-cyclodextrin in water, approximation
measurement-type: solubility

Exam item: Specify solubility for CN[C@@]1(c2ccccc2Cl)CCCCC1=O [R-ketamine free base] and stop.
Marked response: 1.4 to 1.7 mg/mL

###

Assay: Approximate solubility determination (small aliquots of solvent added to ~10 mg of solid, ambient conditions)
Type: physicochemical
Conditions: organic solvent or mixture, thermodynamic from solid, Acetone, approximation
measurement-type: solubility

Exam item: Look up solubility of CN[C@@]1(c2ccccc2Cl)CCCCC1=O [R-ketamine free base] and report it.
Marked response: 111 to 222 mg/mL
